# credit: PubChem BioAssay

- Target System: Follistatin (Homo sapiens) (UniProt P19883)
- Sequence (P19883 whole entry, looked up): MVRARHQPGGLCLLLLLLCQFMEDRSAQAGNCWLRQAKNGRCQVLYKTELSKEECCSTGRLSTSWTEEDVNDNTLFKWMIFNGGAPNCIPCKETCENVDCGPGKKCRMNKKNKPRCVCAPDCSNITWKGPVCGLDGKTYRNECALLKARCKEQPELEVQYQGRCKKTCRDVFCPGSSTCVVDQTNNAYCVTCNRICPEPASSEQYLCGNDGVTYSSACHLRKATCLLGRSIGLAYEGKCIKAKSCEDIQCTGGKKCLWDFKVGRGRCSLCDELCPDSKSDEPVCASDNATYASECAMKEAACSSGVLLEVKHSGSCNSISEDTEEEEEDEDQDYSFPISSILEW
- Protocol Text: FST protein binding to printed compounds – biochemical, small-molecule microarray, 635/667 nm fluorescence, primary screen (AID 1132)
- Assay Context: 635 nm fluorescence, higher = more signal
A collection of compounds and their measured composite z-score
Please state the value as a number alone, without comment.

Recorded composite z-score, per entry:
Record CC(C)CNC(=O)[C@@]1(c2ccc([N+](=O)[O-])cc2)CC(=O)N(C(C)C)[C@@H]1c1ccc(CO)cc1 , field composite z-score: 0.272

Record CC1(C)[C@@H]2CC(C(O)C3C=CC4C(=O)N(c5ccccc5)C(=O)C4N3Nc3ccccc3F)=C[C@@H]1C2 (stereo partly drawn) , field composite z-score: 0.876

Record COC(=O)C(CC#Cc1ccc2c(c1)[C@]1(C(=O)N2)[C@H](c2ccccc2OCCO)N2[C@H](c3ccccc3)[C@H](c3ccccc3)OC(=O)[C@H]2[C@@H]1C(=O)Nc1nc2ccccc2s1)C(=O)OC , field composite z-score: 1.11

More entries:
Record O=C(NCc1ccccc1)[C@]1(Cc2ccccc2)N=C(c2ccc(OCCCO)cc2)O[C@@H]1c1ccccc1 , field composite z-score: -0.0037

Record CCN(CC)c1ccc(N2CC=CC34O[C@@H]5/C=C\CCCOC(=O)C5[C@H]3C(=O)N(CCCCCO)[C@@H]4C2=O)cc1 (stereo partly drawn) , field composite z-score: -0.785

Record CC(C)c1ccc(NN2C(C(O)c3ccccn3)C=CC3C(=O)N(c4ccccc4)C(=O)C32)cc1 (stereo not drawn) , field composite z-score: 1.28

Record COC(=O)[C@@]1(Cc2ccc(OC)cc2)[C@H]2c3cc(C(=O)N4CCCC4)n(CCc4ccc(O)c(OC)c4)c3C[C@H]2CN1C(=O)c1ccccc1 , field composite z-score: -0.625

Record CN(C)CCCCCCNC(=O)[C@@H]1C[C@@H]2C(=O)NCC(=O)N2[C@@H]1c1ccc(O)cc1 , field composite z-score: 1.42

Record C=CCC(OC(C)=O)[C@@H]1[C@@H](N(Cc2ccc(-c3ccccc3)cc2)C(=O)c2cccc3ccccc23)c2cc(OCCCO)ccc2N1C(=O)c1ccc2ccccc2n1 (stereo partly drawn) , field composite z-score: 0.374

Record O=C(O)[C@@]1(Cc2ccccc2)COC(c2ccc(OCCCO)cc2)=N1 , field composite z-score: 0.24

---

- Tested on: Neuregulin-1 EGF-like domain
- Protocol Text: small molecules binding NRG1 EGF domain – biochemical, small-molecule microarray, 635 nm fluorescence, primary screen (AID 1081)
- Assay Context: higher = more signal
A collection of molecules and their measured composite z-score
Please state the value as a number alone, without comment.

Case O=C1O[C@@H](c2ccccc2)[C@@H](c2ccccc2)N2[C@@H](c3ccc(O)cc3)[C@]3(C(=O)Nc4ccc(C#CC5(O)CCCCCC5)cc43)[C@@H](C(=O)N3CCN(c4ncccn4)CC3)[C@H]12 , Neuregulin-1 EGF-like domain, composite z-score recorded as 1.22

More entries:
Case C[N+](C)(C)CCCCCCNC(=O)[C@H]1C[C@H]2C(=O)N3CCC[C@H]3C(=O)N2[C@H]1c1cccc(OCCO)c1 , Neuregulin-1 EGF-like domain, composite z-score recorded as 1.42

Case O=C1O[C@H](c2ccccc2)[C@H](c2ccccc2)N2[C@H]1[C@@H](C(=O)N1CCCCCCC1)[C@]1(C(=O)Nc3ccc(C#CCCO)cc31)[C@H]2c1ccc(OCCO)cc1 , Neuregulin-1 EGF-like domain, composite z-score recorded as 1.35

---

- Protocol Text: resazurin metabolic signal in HepG2 cells – cell-based, resazurin fluorescence, 24 h, PK04 Diversity Set, profiling panel (AID 1172); further: test concentration not given here
- Assay Context: HepG2 viability, higher = more signal
Readout Name: z-score

Recorded z-score, per entry:
Record C=CCNC(=O)[C@H]1[C@@H]2C(=O)O[C@@H](c3ccccc3)[C@@H](c3ccccc3)N2[C@@H](c2ccc(O)cc2)[C@]12C(=O)N(C(=O)OCCOC)c1ccc(C#CC3(O)CCCCCC3)cc12 , field z-score: -0.0051

Record O=C(Nc1cc(Br)ccc1C(=O)NCc1cccc(O)c1)c1ccccc1 , field z-score: -1.11

Record C=CC[C@@]1(C(=O)NCCN2CCOCC2)N=C(c2ccc(OCCCO)cc2)O[C@@H]1c1ccccc1 , field z-score: 0.255

Record CC(C)(C)OC(=O)CC[C@@]1(C(=O)N2CCCCC2)N=C(c2ccc(OCCCO)cc2)O[C@@H]1c1ccccc1N=[N+]=[N-] , field z-score: -0.254

Record COC(=O)[C@@]1(Cc2ccccc2)[C@H]2c3cc(C(=O)N4CCCC4)n(Cc4ccc(OC(F)(F)F)cc4)c3C[C@H]2CN1C(=O)c1ccccc1 , field z-score: -1.22

More entries:
Record C=C(/C(=C/C[C@@H](OC(=O)c1ccncc1)c1cccc(OCCO)c1)c1cc(C(=O)OC)ccc1OC)C(C)C , field z-score: 0.677

Record O=C1N(Cc2ccccc2)c2ccccc2[C@H]2OC(c3ccc(OCCCO)cc3)=N[C@@]12CCS(=O)(=O)c1ccccc1 , field z-score: -0.362

---

- Tested on: Lefty1
- Protocol Text: Lefty1 protein binding to printed compounds – biochemical, small-molecule microarray, 635/667 nm fluorescence, primary screen (AID 1139)
- Assay Context: fluorescence 635/667, higher = more signal
A collection of molecules and their measured composite z-score
Please state the value as a number alone, without comment.

Recorded composite z-score, per entry:
Case CN1C(=O)C2C=CC(C(O)c3cccc4ccccc34)N(NC(=O)OC(C)(C)C)C2C1=O (centres undefined) , Lefty1, composite z-score recorded as -0.516

Case CCN(CC)c1ccc(N2CC=CC34O[C@@H]5/C=C\CCCOC(=O)C5[C@H]3C(=O)N(CCCCCCO)[C@@H]4C2=O)cc1 (some centres undefined) , Lefty1, composite z-score recorded as -0.324

Case COCCCNC(=O)[C@]1(CCS(=O)(=O)c2ccccc2)N=C(c2ccc(OCCCO)cc2)O[C@@H]1c1ccccc1 , Lefty1, composite z-score recorded as 0.136

More entries:
Case O=C1c2ccccc2C(=O)C2CC([C@H]3Oc4ccccc4S(=O)(=O)N4CCC[C@@H]34)=CCC12 (some centres undefined) , Lefty1, composite z-score recorded as -0.02

---

- Protocol Text: probe aShh binding to arrayed compounds – biochemical, biotinylated probe, 635/667 nm fluorescence, primary screen (AID 1114);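 further: probe is biotin-labelled aShh protein from a stem cell growth factor screen; measures binding of labelled protein to compounds printed on the slide; score merges feature fluorescence at 667 nm with signal-to-noise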
- Assay Context: small-molecule microarray, higher = more signal
Tag: 1 if measured composite z-score is not below 0.1, 0 if it is.

Given the entry COCCOC(=O)N1C(=O)[C@@]2(c3cc(C#CC4(O)CCCCCC4)ccc31)[C@H](C(=O)N1CCc3cc(OC)c(OC)cc3C1)[C@H]1C(=O)O[C@H](c3ccccc3)[C@H](c3ccccc3)N1[C@@H]2c1ccccc1OCCO , answer whether its composite z-score meets or surpasses 0.1.
1

Given the entry COc1cccc(C[C@H]2C[C@@H](CO[Si](C(C)C)(C(C)C)C(C)C)N3C(=O)[C@]4(C(C)=O)O[C@]23[C@H]2C(=O)N(C)C(=O)[C@H]24)c1 , answer whether its composite z-score meets or surpasses 0.1.
1

Given the entry COCCOC(=O)N1C(=O)[C@@]2(c3cc(C#CC4(O)CCCCCC4)ccc31)[C@H](C(=O)NC[C@H](O)c1ccccc1)[C@H]1C(=O)O[C@H](c3ccccc3)[C@H](c3ccccc3)N1[C@@H]2c1ccc(OCCO)cc1 , answer whether its composite z-score meets or surpasses 0.1.
0

Given the entry C=C(CCCC)/C(=C/C[C@H](OC(=O)c1ccncc1)c1ccc(CO)o1)c1cc(C(=O)OC)ccc1OC , answer whether its composite z-score meets or surpasses 0.1.
1

Given the entry OCc1ccc(-c2cc[n+](Cc3cccc(OC(F)(F)F)c3)cc2)cc1 , answer whether its composite z-score meets or surpasses 0.1.
0

---

- Protocol Text: small molecules captured by biotinylated probe aFGF10 – biochemical, small-molecule microarray, fluorescence 635/667, stem cell growth factor project, primary screen (AID 1071);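 further: score merges 667 nm spot intensity and signal to noise from triplicate slides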
- Assay Context: higher = more signal
Tag: Yes if measured composite z-score is not below 0.2, No if it is.

Use the examples below as a reference point.
Given the entry COCCOC(=O)N1C(=O)[C@@]2(c3cc(C#CCNC(N)=O)ccc31)[C@H](C(N)=O)[C@H]1C(=O)O[C@H](c3ccccc3)[C@H](c3ccccc3)N1[C@@H]2c1ccc(OCCO)cc1 , answer whether its composite z-score meets or surpasses 0.2.
Yes

Given the entry Cc1ccc(S[C@]2(C(=O)NCCN3CCOCC3)CC(=O)N(C3Cc4ccccc4C3)[C@@H]2c2ccc(CO)cc2)cc1 , answer whether its composite z-score meets or surpasses 0.2.
No

Given the entry O=C(C=C(CC(O)c1cccc(Cl)c1)OCCF)OCCF (stereo not drawn) , answer whether its composite z-score meets or surpasses 0.2.
No

Given the entry CC(C)(C)OC(=O)CC[C@@]1(C(=O)N2CCCCC2)N=C(c2ccc(OCCCO)cc2)O[C@@H]1c1ccccc1CN=[N+]=[N-] , answer whether its composite z-score meets or surpasses 0.2.
Yes

Given the entry CCCC=C(CCC)[C@@H](NS(=O)(=O)CC)c1ccccc1 , answer whether its composite z-score meets or surpasses 0.2.
Yes

More entries:
Given the entry C=C(CCCC)/C(=C/C[C@@H](OC(=O)c1ccncc1)c1ccccc1OCCO)c1cc(C(=O)OC)ccc1OC , answer whether its composite z-score meets or surpasses 0.2.
No

Given the entry C[N+](C)(C)CCCCNC(=O)[C@H]1C[C@H]2C(=O)NCC(=O)N2[C@H]1c1ccc(O)cc1 , answer whether its composite z-score meets or surpasses 0.2.
Yes

Given the entry O=C1c2ccccc2[C@](Cc2ccccc2I)(C(=O)NC2CC2)[C@H](c2ccc(CO)cc2)N1Cc1ccccc1Cl , answer whether its composite z-score meets or surpasses 0.2.
Yes
